Source of measurements: paper PMC7949130

# assay system: T1, native sulfated human anionic trypsin purified from pancreatic juice (human, UniProt P07478 24-247, sulfated on Tyr154)
# T1 construct: human anionic trypsin, the active enzyme cut from anionic trypsinogen by enteropeptidase; also called Hu2-SO4 (native); Hu2-SO4
# T1 sequence (P07478 24-247): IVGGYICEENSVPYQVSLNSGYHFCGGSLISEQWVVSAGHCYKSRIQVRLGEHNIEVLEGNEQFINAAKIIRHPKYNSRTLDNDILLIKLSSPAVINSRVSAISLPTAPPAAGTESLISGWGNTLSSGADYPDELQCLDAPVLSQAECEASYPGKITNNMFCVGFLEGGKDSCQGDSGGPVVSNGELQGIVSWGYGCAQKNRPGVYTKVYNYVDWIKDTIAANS
# protocol: equilibrium binding assay (free trypsin activity on a fluorogenic substrate); fixed trypsin incubated with increasing SPINK1, 0.2 ml, 0.1 M Tris-HCl (pH 8.0), 150 mM NaCl, 1 mM CaCl2, 0.05% Tween 20, 15 h; free trypsin measured with Z-Gly-Pro-Arg-AMC; apparent KD, global fit of at least three experiments
# condition notes: both partners purified
recorded metric: pKd
Kindly note that pKd refers to -log10 of the concentration in mol/L and answer with the value alone.

SPINK1 variant N34S, C-terminal 10His tag (natural protein, human, UniProt P00995 24-79, looked up, also called SPINK1 N34S; p.N34S; source: HEK 293T, transfected, purified from conditioned medium (nickel-nitrilotriacetic acid cartridge); not shown: 10His, C-terminal, kept) DSLGREAKCYSELNGCTKIYDPVCGTDGNTYPNECVLCFENRKRQTSILIQKSGPC: 10.78

Now take the following binder into account.
Given the binder serine protease inhibitor Kazal type 1 (SPINK1), wildtype, C-terminal 10His tag (natural protein, human, UniProt P00995 24-79, looked up, expressed from the SPINK1-minigene-1 construct with its own signal peptide; Residue numbers start at the initiator methionine; source: HEK 293T, transfected, purified from conditioned medium (nickel-nitrilotriacetic acid cartridge); not shown: 10His, C-terminal, kept) DSLGREAKCYNELNGCTKIYDPVCGTDGNTYPNECVLCFENRKRQTSILIQKSGPC , write its reported pKd. 10.44
